# TARGET_UNDER_TEST: GABAa receptor (benzodiazepines (BDZ) receptor)
# TEST_SUMMARY: GABAa receptor (benzodiazepine receptor) binding assay, 3H-RO15-1788 [3H-Flumazenil] displacement in rat cortical tissue
# EXPERIMENTAL_CONDITIONS: 0.5 nM 3H-RO15-1788, 30 min at 4° C., pH 7.4
Structures can show the parent of a compound that is named as a salt.
QUANTITY: pKi
Give only the number. pKi is defined as minus log10 of concentration in molar units.

Check out these entries, answers already filled in.
In [3]: df
Out[3]:
                                   compound  quantity  recorded_number
0  O=c1[nH]c2c(c3nn(-c4ccccc4)c(=O)n13)CCCC2       pKi             8.35
1   O=c1[nH]c2ccccc2c2nn(-c3ccccc3)c(=S)n12       pKi             8.35
2   O=c1[nH]c2ccccc2c2nn(-c3ccccc3)c(=O)n12       pKi             8.23

Please give the measured pKi for this compound: O=c1n(-c2ccccc2)nc2n1CNc1ccccc1-2
7.92

Please give the measured pKi for this compound: CN(C)Cc1ccc(-n2nc3n(c2=O)CNc2ccccc2-3)cc1 [Compound 21, hydrochloride]
7.28

Please give the measured pKi for this compound: O=c1[nH]c2ccccc2c2nn(-c3ccccn3)c(=O)n12
8.12

Please give the measured pKi for this compound: S=c1n(-c2ccccc2)nc2n1CNc1ccccc1-2
6.20

Please give the measured pKi for this compound: O=c1n(-c2ccccn2)nc2n1CNc1ccccc1-2
7.20

Please give the measured pKi for this compound: O=c1n(-c2ccccc2)nc2n1CNC1=C2CCCC1
8.10

Ref: patent US5677309A
